target: Proto-oncogene tyrosine-protein kinase ROS (Homo sapiens, UniProt P08922)
Sequence (P08922 whole entry): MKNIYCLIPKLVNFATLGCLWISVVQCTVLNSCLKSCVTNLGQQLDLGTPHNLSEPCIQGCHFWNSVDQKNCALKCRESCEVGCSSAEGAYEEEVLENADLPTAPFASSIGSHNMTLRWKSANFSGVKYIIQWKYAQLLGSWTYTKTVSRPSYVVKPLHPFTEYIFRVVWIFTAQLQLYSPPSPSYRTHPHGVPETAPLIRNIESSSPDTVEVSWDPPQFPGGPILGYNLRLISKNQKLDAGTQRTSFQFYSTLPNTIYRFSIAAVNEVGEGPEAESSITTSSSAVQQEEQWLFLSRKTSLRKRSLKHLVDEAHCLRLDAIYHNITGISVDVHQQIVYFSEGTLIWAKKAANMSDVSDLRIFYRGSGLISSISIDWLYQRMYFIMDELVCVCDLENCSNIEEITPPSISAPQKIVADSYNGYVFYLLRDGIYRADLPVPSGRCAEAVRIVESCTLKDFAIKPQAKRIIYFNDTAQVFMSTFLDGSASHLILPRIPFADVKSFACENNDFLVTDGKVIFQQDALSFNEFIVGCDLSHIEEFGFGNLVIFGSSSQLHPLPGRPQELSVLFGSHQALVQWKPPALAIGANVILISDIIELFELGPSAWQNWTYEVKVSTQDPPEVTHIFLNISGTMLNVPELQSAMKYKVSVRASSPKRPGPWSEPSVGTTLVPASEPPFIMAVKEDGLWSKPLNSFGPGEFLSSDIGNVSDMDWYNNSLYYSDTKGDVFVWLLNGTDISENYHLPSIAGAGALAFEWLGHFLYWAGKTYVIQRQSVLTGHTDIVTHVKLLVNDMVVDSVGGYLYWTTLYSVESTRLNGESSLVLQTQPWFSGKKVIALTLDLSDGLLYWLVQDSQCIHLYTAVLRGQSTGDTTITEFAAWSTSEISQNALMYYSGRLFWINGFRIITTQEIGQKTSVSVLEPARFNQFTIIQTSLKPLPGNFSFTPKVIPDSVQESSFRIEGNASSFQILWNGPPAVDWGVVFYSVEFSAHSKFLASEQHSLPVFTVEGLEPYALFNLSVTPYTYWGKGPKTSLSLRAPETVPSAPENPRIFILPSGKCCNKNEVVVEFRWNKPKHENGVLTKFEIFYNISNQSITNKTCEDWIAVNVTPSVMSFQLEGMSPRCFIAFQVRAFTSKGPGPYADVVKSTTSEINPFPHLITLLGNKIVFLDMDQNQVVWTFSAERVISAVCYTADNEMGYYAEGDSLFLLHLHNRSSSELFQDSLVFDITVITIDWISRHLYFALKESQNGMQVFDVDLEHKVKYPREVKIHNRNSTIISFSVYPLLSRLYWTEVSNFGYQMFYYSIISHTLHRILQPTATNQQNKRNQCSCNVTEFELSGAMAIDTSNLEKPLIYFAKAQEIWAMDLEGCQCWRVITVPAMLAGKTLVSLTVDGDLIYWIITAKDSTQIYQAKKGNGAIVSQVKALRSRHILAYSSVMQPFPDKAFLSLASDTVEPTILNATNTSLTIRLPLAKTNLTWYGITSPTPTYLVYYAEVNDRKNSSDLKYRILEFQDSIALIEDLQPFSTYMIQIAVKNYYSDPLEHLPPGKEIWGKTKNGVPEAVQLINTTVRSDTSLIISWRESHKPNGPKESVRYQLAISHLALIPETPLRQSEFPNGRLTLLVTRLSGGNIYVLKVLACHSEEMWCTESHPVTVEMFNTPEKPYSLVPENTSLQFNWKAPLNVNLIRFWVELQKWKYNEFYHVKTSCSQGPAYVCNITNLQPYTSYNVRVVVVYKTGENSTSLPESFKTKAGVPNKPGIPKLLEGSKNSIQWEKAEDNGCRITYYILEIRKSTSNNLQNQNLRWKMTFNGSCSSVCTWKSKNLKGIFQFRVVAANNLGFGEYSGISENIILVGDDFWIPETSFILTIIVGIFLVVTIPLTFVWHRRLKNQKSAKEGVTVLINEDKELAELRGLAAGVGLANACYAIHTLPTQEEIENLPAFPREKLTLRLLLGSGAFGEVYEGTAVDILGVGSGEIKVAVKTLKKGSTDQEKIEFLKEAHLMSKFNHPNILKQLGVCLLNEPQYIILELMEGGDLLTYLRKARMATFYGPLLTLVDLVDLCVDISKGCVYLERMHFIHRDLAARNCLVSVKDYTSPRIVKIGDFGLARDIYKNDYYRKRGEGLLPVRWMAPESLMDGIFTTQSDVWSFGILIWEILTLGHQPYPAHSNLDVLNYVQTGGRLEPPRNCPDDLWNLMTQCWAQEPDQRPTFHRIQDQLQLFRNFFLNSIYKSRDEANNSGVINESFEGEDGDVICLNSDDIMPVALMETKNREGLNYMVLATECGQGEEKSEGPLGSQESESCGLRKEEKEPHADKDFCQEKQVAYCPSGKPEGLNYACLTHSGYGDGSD
Decision: IC50 beneath 100 nM gives YES; IC50 meeting or exceeding 100 nM gives NO.

# Item smiles, Target under test, Class
data = [
    ("Cc1cc(O)cc(-c2nn(C)cc2-c2cc(N3CCOCC3)nc(-c3cccnc3)n2)c1", "Proto-oncogene tyrosine-protein kinase ROS (Homo sapiens, UniProt P08922)", "YES"),
    ("COc1cc(C)cc(-c2c(-c3cc(NCCCCO)nc(-c4cccnc4)n3)cnn2C)c1", "Proto-oncogene tyrosine-protein kinase ROS (Homo sapiens, UniProt P08922)", "NO"),
    ("COc1cc(C)cc(-c2c(-c3cc(N4CCOCC4)nc(-c4cccnc4)n3)cnn2C)c1", "Proto-oncogene tyrosine-protein kinase ROS (Homo sapiens, UniProt P08922)", "NO"),
    ("COc1cc(C)cc(-c2nn(C)cc2-c2cc(NC[C@H](C)O)nc(-c3cccnc3)n2)c1", "Proto-oncogene tyrosine-protein kinase ROS (Homo sapiens, UniProt P08922)", "NO"),
    ("Cc1cc(O)cc(-c2nn(C)cc2-c2cc(N3CC(O)C3)nc(-c3cccnc3)n2)c1", "Proto-oncogene tyrosine-protein kinase ROS (Homo sapiens, UniProt P08922)", "YES"),
    ("COc1cc(C)cc(-c2nn(C)cc2-c2cc(N3CC(O)C3)nc(-c3cccnc3)n2)c1", "Proto-oncogene tyrosine-protein kinase ROS (Homo sapiens, UniProt P08922)", "NO"),
    ("Cc1cc(O)cc(-c2c(-c3cc(NC[C@H](C)O)nc(-c4cccnc4)n3)cnn2C)c1", "Proto-oncogene tyrosine-protein kinase ROS (Homo sapiens, UniProt P08922)", "NO"),
]
